// provenance: paper PMC10661964

Target: OAT1 (Homo sapiens, UniProt Q4U2R8)
Sequence (Q4U2R8 1-563): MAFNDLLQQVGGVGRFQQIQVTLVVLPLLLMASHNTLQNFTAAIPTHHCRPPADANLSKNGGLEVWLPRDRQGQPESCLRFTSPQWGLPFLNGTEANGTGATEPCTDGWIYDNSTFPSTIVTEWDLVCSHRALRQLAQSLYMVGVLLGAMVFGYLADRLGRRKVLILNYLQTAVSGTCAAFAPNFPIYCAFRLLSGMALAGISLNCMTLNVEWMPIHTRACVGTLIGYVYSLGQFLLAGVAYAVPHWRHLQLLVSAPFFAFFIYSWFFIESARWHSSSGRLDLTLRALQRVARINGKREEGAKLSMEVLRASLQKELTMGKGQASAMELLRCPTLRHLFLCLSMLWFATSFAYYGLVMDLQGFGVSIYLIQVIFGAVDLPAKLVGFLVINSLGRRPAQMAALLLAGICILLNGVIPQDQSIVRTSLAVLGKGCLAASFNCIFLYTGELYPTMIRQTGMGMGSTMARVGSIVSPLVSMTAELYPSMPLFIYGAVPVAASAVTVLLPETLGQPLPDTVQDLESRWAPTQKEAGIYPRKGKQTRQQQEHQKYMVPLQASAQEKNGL
Assay: Uptake transporter inhibition
Conditions: probe substrate p-aminohippuric acid
measured_parameter: IC50

[[record]]
compound = "CC1CS(=O)(=O)CCN1N (stereo not drawn)"
measured_parameter = "IC50"
recorded_result = "> 30 µM"


Would you be so kind as to report IC50 for each listed record?
1. CC1CS(=O)(=O)CCN1n1cc(SCC(N)C(=O)O)ccc1=O (stereo not drawn)
2. CC1CS(=O)(=O)CCN1/N=C/c1ccc([N+](=O)[O-])o1 (stereo not drawn) [Nifurtimox, reference compound]

(A)
> 5 µM
> 20 µM

----------
Please respond with reported Tmax for every item in the list.
Experiment: Quantification of nifurtimox and metabolites in rat plasma after a single high dose (200 mg/kg)
Assay type: in vivo, Wistar rats
Settings: female, Wistar, rat, plasma, po, 200 mg/kg; read-out: tmax, female animals
Description: Blood cells and plasma were then separated by centrifugation, and the plasma was stored at ≤-15°C until required. For analysis, plasma samples were thawed at room temperature and homogenized by vortex mixing. […] The supernatant was analyzed using a 1290 Infinity LC system equipped with a diode array detector and an Orbitrap Q-Exactive Plus HRMS (Thermo Fisher Scientific, Bremen, Germany) with a heated electrospray ionization source. […]
One number for each entry, in h.

Reference set (5 entries):
[[record]]
compound = "CC1CS(=O)(=O)CCN1/N=C/C(CCC(=O)O)=N\\O (stereo not shown)"
measured_parameter = "Tmax"
recorded_result = 2

[[record]]
compound = "CC(=O)NC(CSc1ccc(=O)n(N2CCS(=O)(=O)CC2C)c1)C(=O)O (stereo not shown)"
measured_parameter = "Tmax"
recorded_result = 3

[[record]]
compound = "CC1CS(=O)(=O)CCN1/N=C/c1ccc([N+](=O)[O-])o1 (stereo not shown) [Nifurtimox, reference compound]"
measured_parameter = "Tmax"
recorded_result = 1

[[record]]
compound = "CC1CS(=O)(=O)CCN1/N=C/C(=O)CCC(=O)O (stereo not shown)"
measured_parameter = "Tmax"
recorded_result = 1

[[record]]
compound = "CC1CS(=O)(=O)CCN1/N=C/C(=O)CCC#N (stereo not shown)"
measured_parameter = "Tmax"
recorded_result = 8


Would you be so kind as to report Tmax for each listed record?
1. CC1CS(=O)(=O)CCN1N (stereo not shown)
2. CC1CS(=O)(=O)CCN1n1cc(SCC(N)C(=O)O)ccc1=O (stereo not shown)

(A)
[3, 3]
